tested on: SF-295 CNS; assay: NCI-60 one-dose screen, 48 h; details: 10 µM unless noted
Compounds without any hit were thinned out: in the full panel of roughly 83,000, 20% have a hit. Calls of active or inactive are those of the source. How the source made its calls: active means growth percent below 10; inactive means the rest.
# valid calls are active, inactive; nothing else

Recorded results for 4 compounds are shown here.
| Compound | Assigned Category |
| --- | --- |
| NCCCCn1c(SCCc2c[nH]c3ccccc23)nnc1-c1ccc2ccccc2n1 | active |
| COC(=O)c1c(C(=O)OC)c2c3ccccc3c3ccccc3n2c1C(=O)C(C)(C)C | inactive |
| COc1ccc(/C=C/C(=O)c2ccc(OC)c(S(N)(=O)=O)c2)c(C(F)(F)F)c1 | inactive |
| COc1ccc(NC(=O)N/N=C/c2c[nH]c3ccccc23)cc1 | inactive |

[ask] Outcome logged for CN(C)c1nc(NCCNS(=O)(=O)c2ccc(C3=Nc4c(N)nc(N)nc4NC(c4ccc(Cl)cc4)C3)cc2)nc(N2CCOCC2)n1 (configuration not stated) in this assay:
[reply] inactive

[ask] Just curious, what result did `CCCn1c(NC(=O)c2cccc(C(N)=O)c2)nc2cc(CN3CCCCC3)ccc21` get here?
[reply] inactive

[ask] Could you kindly confirm the outcome this assay logged for CN(C)CCOc1ccc(C(=O)C2[C@H](c3ccc(Cl)cc3)[C@@H](c3ccccc3)NC23C(=O)Nc2ccc(Cl)cc23)cc1 (some centres not stated) ?
[reply] active

[ask] Just curious, what result did O=C(c1ccc(Cl)cc1)C1[C@H](c2ccccc2Cl)[C@@H](c2ccccc2)NC12C(=O)Nc1ccc(Br)cc12 (some centres not stated) get here?
[reply] active

[ask] # lookup: test call for `O=C(N/N=C/c1ccsc1)c1[nH]c2ccc(Br)cc2c1-c1ccccc1`
[reply] active
